Values from ChEMBL document CHEMBL1140102

Method Notes: Displacement of [3H]colchicine from tubulin by scintillation proximity assay
Outcome Measure: IC50 (µM)
Report as a plain number; the unit µM is understood.

Entry under test: COc1ccc(/C=C\c2cc(OC)c3ccsc3c2)cc1N.Cl . Its IC50 was 6.2

Entry under test: COc1cc(/C=C\c2cc(O)c3ccsc3c2)cc2c1OCO2 . Its IC50 was 4.9

Entry under test: COc1ccc(/C=C\c2cc(OC)c3occc3c2)cc1O . Its IC50 was 0.05

Entry under test: COc1cc(/C=C\c2cc(O)c3ccsc3c2)cc(OC)c1 . Its IC50 was 3.8

Entry under test: COc1cc(/C=C\c2cc(O)c3ccoc3c2)cc(OC)c1 . Its IC50 was 4

Entry under test: COc1cc2c(c(OC)c1OC)-c1ccc(OC)c(=O)cc1[C@@H](NC(C)=O)CC2 . Its IC50 was 1.7

Entry under test: COc1ccc(/C=C/c2cc(OC)c3ccoc3c2)cc1O . Its IC50 was 6.2

Entry under test: COc1cc(/C=C\c2cc(O)c3ccoc3c2)cc2c1OCO2 . Its IC50 was 7.7

Entry under test: COc1ccc(/C=C\c2cc(OC)c3ccsc3c2)cc1O . Its IC50 was 0.02

Entry under test: COc1ccc(/C=C\c2cc(OC)c(OC)c(OC)c2)cc1O . Its IC50 was 0.1

Entry under test: COc1ccc(/C=C\c2cc(OC)c3ccoc3c2)cc1O . Its IC50 was 0.02

---

Tested on: HT-29
Method Notes: Cytotoxicity against human HT29 cells by sulforhodamine B test
Format: functional, cell-based
pIC50: −log10 of the molar value.
Output met for pIC50 not less than 7; output not met otherwise.

Form field: pIC50 at least 7? Entry: COc1ccc(/C=C\c2cc(OC)c3ccsc3c2)cc1O not met

Form field: pIC50 at least 7? Entry: COc1ccc(/C=C\c2cc(OC)c3ccsc3c2)cc1N.Cl met

Form field: pIC50 at least 7? Entry: COc1ccc(/C=C\c2cc(OC)c3occc3c2)cc1O not met

Form field: pIC50 at least 7? Entry: COc1ccc(/C=C\c2cc(OC)c3ccoc3c2)cc1O not met

Form field: pIC50 at least 7? Entry: COc1ccc(/C=C\c2cc(OC)c3c(c2)OCO3)cc1O [Combretastatin A-2] not met

---

Tested on: BMEC
Method Notes: Cytotoxicity against BMEC by sulforhodamine B test
Format: cell-based
Test Settings: Bos taurus
Could you mark each record fulfilled if its IC50 falls strictly under 0.1 µM, and not fulfilled if it equals or exceeds it?

Determine if COc1cc(/C=C\c2cc(O)c3ccsc3c2)cc2c1OCO2 shows IC50 strictly lower than 0.1 µM. not fulfilled

Determine if COc1ccc(/C=C\c2ccc3c(c2)C(C)(C)CCC3(C)C)cc1O shows IC50 strictly lower than 0.1 µM. not fulfilled

Determine if COc1cc(/C=C\c2cc(O)c3ccsc3c2)cc(OC)c1 shows IC50 strictly lower than 0.1 µM. not fulfilled

Determine if COc1ccc(/C=C\c2cc(OC)c3ccsc3c2)cc1O shows IC50 strictly lower than 0.1 µM. fulfilled

Determine if COc1ccc(/C=C/c2cc(OC)c3ccoc3c2)cc1O shows IC50 strictly lower than 0.1 µM. not fulfilled

Determine if COc1ccc(/C=C\c2cc(OC)c3occc3c2)cc1O shows IC50 strictly lower than 0.1 µM. fulfilled

Determine if COc1cc(/C=C\c2cc(O)c3ccoc3c2)cc(OC)c1 shows IC50 strictly lower than 0.1 µM. not fulfilled

Determine if COc1ccc(/C=C\c2cc(OC)c3c(c2)OCO3)cc1O [Combretastatin A-2] shows IC50 strictly lower than 0.1 µM. fulfilled

Determine if COc1ccc(/C=C\c2cc(OC)c3ccsc3c2)cc1 shows IC50 strictly lower than 0.1 µM. not fulfilled

Determine if COc1ccc(/C=C\c2cc(OC)c3ccsc3c2)cc1N.Cl shows IC50 strictly lower than 0.1 µM. fulfilled

Determine if COc1ccc(/C=C\c2cc(OC)c3ccoc3c2)cc1O shows IC50 strictly lower than 0.1 µM. fulfilled

Determine if COc1ccc(/C=C\c2cc(OC)c(OC)c(OC)c2)cc1O [COMBRETASTATIN A4] shows IC50 strictly lower than 0.1 µM. fulfilled

Determine if COc1cc(/C=C\c2cc(O)c3ccoc3c2)cc2c1OCO2 shows IC50 strictly lower than 0.1 µM. not fulfilled

Determine if COc1cc(/C=C\c2cc(O)c3ccsc3c2)cc2sccc12 shows IC50 strictly lower than 0.1 µM. not fulfilled
